biological target: Ephrin type-B receptor 4 (Homo sapiens); settings: at 0.1 µM;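 note: each value is a mean percent inhibition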
result_type: inhibition (%)
A number alone suffices; assume %.

So what's the measured inhibition for this one? Fc1ccc(-c2nn3ccccc3c2-c2ccncc2)cc1
1.73

So what's the measured inhibition for this one? CNC(=O)c1cncc(/C=C/c2ccccc2Cl)c1
-0.2

So what's the measured inhibition for this one? CCN1CCC(CC(=O)Nc2n[nH]c3nnc(-c4cccc(F)c4F)cc23)CC1
-0.34

So what's the measured inhibition for this one? Fc1ccc(-c2cc(-c3c[nH]nc3-c3ccccn3)ccn2)cc1
3.71

Okay, now this molecule:
So what's the measured inhibition for this one? COC(=O)Nc1nc2ccc(S(=O)(=O)c3ccc(NC(=O)Nc4cc(C(F)(F)F)ccc4F)cc3)cc2[nH]1
2.15

----------
target: Rhodopsin kinase GRK7 (Homo sapiens); conditions: at 0.1 µM
result_type: inhibition (%)
A number alone suffices; assume %.

Please review the following examples before continuing.
So what's the measured inhibition for this one? CCOc1ccc2c(-c3ccnc(Nc4cccc(C(F)(F)F)c4)n3)cnn2n1
3.77

So what's the measured inhibition for this one? CCn1c(-c2nonc2N)nc2ccccc21
1.89

New cases:
So what's the measured inhibition for this one? COc1cccc(-n2ncc3c(N/N=C/c4ccc(F)cc4)ncnc32)c1
3.44

So what's the measured inhibition for this one? c1ccc(COc2ccc(Nc3ncnc4ccc(-c5ccco5)cc34)cc2)cc1
5.57

So what's the measured inhibition for this one? COc1ccc2[nH]c3c4[nH]c5ccc(OC)cc5c4c4c(c3c2c1)C(=O)NC4=O
22.7

So what's the measured inhibition for this one? Nc1nc(-c2cccc(Cl)c2)c(-c2ccc3ncccc3n2)s1
7.84

So what's the measured inhibition for this one? CCCN1CCC(c2ccc(Nc3nc(Nc4cc(F)ccc4C(N)=O)c4cc[nH]c4n3)c(OC)c2)CC1
11.6

So what's the measured inhibition for this one? Fc1ccc(-c2nn3ccccc3c2-c2ccncc2)cc1
0.65

So what's the measured inhibition for this one? Nc1nc(-c2ccc(F)cc2)c(-c2ccc3ncccc3n2)s1
6.78

So what's the measured inhibition for this one? CN1CCC(n2cnc(-c3ccc(F)cc3)c2-c2ccnc(N)n2)CC1
3.11

So what's the measured inhibition for this one? Cc1cccc(Nc2ncc(-c3ccccc3)o2)c1
4.29

----------
target: Inhibitor of nuclear factor kappa-B kinase subunit beta (Homo sapiens) (UniProt O14920); settings: at 0.1 µM;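 note: values are mean percent inhibition of IKKB, part of the GSK PKIS screening data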
Sequence (O14920 whole entry): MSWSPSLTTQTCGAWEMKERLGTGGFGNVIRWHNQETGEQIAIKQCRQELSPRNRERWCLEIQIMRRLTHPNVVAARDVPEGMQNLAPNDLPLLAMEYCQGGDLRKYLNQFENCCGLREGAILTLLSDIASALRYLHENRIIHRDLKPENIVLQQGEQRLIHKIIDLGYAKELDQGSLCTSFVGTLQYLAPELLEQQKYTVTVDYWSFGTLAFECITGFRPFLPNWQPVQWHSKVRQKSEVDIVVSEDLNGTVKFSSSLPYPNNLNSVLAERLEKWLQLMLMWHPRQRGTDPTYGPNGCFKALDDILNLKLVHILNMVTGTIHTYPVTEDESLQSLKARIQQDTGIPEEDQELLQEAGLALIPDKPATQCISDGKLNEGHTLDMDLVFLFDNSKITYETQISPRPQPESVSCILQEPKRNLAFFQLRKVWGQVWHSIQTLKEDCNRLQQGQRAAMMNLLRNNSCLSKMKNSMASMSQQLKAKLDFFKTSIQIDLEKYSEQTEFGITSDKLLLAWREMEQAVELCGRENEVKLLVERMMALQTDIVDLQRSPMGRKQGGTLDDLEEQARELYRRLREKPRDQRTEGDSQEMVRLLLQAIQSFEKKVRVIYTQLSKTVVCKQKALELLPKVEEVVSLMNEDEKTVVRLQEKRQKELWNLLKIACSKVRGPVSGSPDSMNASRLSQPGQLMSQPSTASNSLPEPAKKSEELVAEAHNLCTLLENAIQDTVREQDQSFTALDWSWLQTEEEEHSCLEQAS
Listed here are compounds together with their documented inhibition.
A number alone suffices; assume %.

Please review the following examples before continuing.
So what's the measured inhibition for this one? Nc1nc(-c2ccc(F)cc2)c(-c2ccc3ncccc3n2)s1
5.24

So what's the measured inhibition for this one? Fc1ccc(-c2nn3ncccc3c2-c2ccnc(Nc3ccc4c(c3)OCCO4)n2)cc1
5.46

So what's the measured inhibition for this one? CCn1c(-c2nonc2N)nc2c(C#CC(C)(C)O)nc(OC[C@H](N)c3ccccc3)cc21
1.71

So what's the measured inhibition for this one? COC(=O)Nc1nc2ccc(Oc3ccc(NC(=O)Nc4cccc(Cl)c4)cc3)cc2[nH]1
-0.04

So what's the measured inhibition for this one? Clc1ccc(-c2nn3ncccc3c2-c2ccnc(Nc3ccccc3)n2)cc1
-3.05

So what's the measured inhibition for this one? CS(=O)(=O)CCNCc1coc(-c2ccc3ncnc(Nc4ccc(OCc5ccccc5)cc4)c3c2)c1
3.35

So what's the measured inhibition for this one? COc1ccc2[nH]c3c4[nH]c5ccc(OC)cc5c4c4c(c3c2c1)C(=O)NC4=O
3.54

So what's the measured inhibition for this one? COc1cc(N2CCN(C(C)C)CC2)ccc1Nc1nc(Nc2ccc(F)cc2C(N)=O)c2cc[nH]c2n1
2.59

New cases:
So what's the measured inhibition for this one? CCN1CCC(CC(=O)Nc2n[nH]c3nnc(-c4cccc(F)c4F)cc23)CC1
5.28

So what's the measured inhibition for this one? Cc1cccc2c1NC(=O)/C2=N\Nc1ccc(S(N)(=O)=O)cc1
2.93

So what's the measured inhibition for this one? CCn1c(-c2nonc2N)nc2c(C#CC(C)(C)O)ncc(OC3CCNCC3)c21
4.3

So what's the measured inhibition for this one? CN(C)CCOc1ccc(-c2nc(-c3ccncc3)c(-c3ccc4c(c3)CC/C4=N\O)[nH]2)cc1
0.93

So what's the measured inhibition for this one? CCc1nn2ncccc2c1-c1ccnc(NC2CC2)n1
4.78

So what's the measured inhibition for this one? COc1cccc(-c2c[nH]c3c(N/N=C/c4ccncc4)ncnc23)c1
2.82

So what's the measured inhibition for this one? CN1CCC(n2cnc(-c3ccc(F)cc3)c2-c2ccnc(N)n2)CC1
4.41

So what's the measured inhibition for this one? COc1ccc(CNC(=O)c2ccc(-c3cc(-c4nnc(C)o4)ccc3C)cc2)cc1
1.12

So what's the measured inhibition for this one? CCN(CC)S(=O)(=O)c1ccc(OC)c(Nc2ncc(-c3ccccc3)o2)c1
0.24

----------
target: MAP kinase-activated protein kinase 3 (Homo sapiens); conditions: at 1 µM
Description: GSK_PKIS: MAPKAPK3 mean inhibition at 1 uM [Nanosyn]
result_type: inhibition (%)
A number alone suffices; assume %.

Please review the following examples before continuing.
Request: inhibition, test system MAP kinase-activated protein kinase 3 (Homo sapiens), entry CCn1c(-c2nonc2N)nc2c(C#CC(C)(C)O)ncc(OC3CCNCC3)c21
4.41

Request: inhibition, test system MAP kinase-activated protein kinase 3 (Homo sapiens), entry COC(=O)c1sc(-n2cnc3cc(OC)c(OC)cc32)cc1OCc1ccccc1C(F)(F)F
5.46

Request: inhibition, test system MAP kinase-activated protein kinase 3 (Homo sapiens), entry CCCN1CCC(c2ccc(Nc3nc(Nc4cc(F)ccc4C(N)=O)c4cc[nH]c4n3)c(OC)c2)CC1
11.9

Okay, now this compound:
Request: inhibition, test system MAP kinase-activated protein kinase 3 (Homo sapiens), entry COc1cccc(-n2ncc3c(N/N=C/c4ccc(F)cc4)ncnc32)c1
3.2

----------
Listed here are compounds together with their documented inhibition.
Molecular target: Rhodopsin kinase GRK7 (Homo sapiens) (UniProt Q8WTQ7)
Sequence (whole entry): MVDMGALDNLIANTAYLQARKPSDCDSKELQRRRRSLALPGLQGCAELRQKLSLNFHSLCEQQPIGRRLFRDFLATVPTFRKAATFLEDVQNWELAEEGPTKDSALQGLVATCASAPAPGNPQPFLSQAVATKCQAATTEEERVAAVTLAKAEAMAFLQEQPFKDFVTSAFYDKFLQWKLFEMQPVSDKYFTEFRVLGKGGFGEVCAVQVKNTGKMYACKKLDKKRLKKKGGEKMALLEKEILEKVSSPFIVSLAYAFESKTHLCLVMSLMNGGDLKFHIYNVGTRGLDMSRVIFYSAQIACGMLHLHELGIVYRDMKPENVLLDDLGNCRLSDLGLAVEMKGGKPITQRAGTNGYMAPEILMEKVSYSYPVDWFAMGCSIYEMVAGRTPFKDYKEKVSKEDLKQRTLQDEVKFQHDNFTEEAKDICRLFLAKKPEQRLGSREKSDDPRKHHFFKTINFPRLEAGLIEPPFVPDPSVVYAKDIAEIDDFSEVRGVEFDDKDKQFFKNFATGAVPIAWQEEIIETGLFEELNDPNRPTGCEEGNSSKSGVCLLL
Conditions: at 1 µM
A number alone suffices; assume %.

Please review the following examples before continuing.
So what's the measured inhibition for this one? CC1=C(C(=O)Nc2cc(Cl)c3[nH]ncc3c2)C(c2ccc(C(F)(F)F)cc2)CC(=O)N1 (centres undefined)
16.4

So what's the measured inhibition for this one? Nc1ncc(-c2cccc(S(N)(=O)=O)c2)c2scc(-c3ccc(F)c(Cl)c3)c12
6.1

So what's the measured inhibition for this one? CC(=O)Nc1cccc(C#Cc2cncnc2Nc2ccc(OCc3cccc(F)c3)c(Cl)c2)c1
-3.08

So what's the measured inhibition for this one? COc1ccc(-c2oc3ncnc(N)c3c2-c2ccc(NC(=O)Nc3cc(C(F)(F)F)ccc3F)cc2)cc1
22

New cases:
So what's the measured inhibition for this one? Fc1ccc(-c2nn3ncccc3c2-c2ccnc(Nc3ccc4c(c3)OCCO4)n2)cc1
5.57

So what's the measured inhibition for this one? CCn1c(-c2nonc2N)nc2c(C#CC(C)(C)O)ncc(OC3CCNCC3)c21
17

So what's the measured inhibition for this one? COC(=O)Nc1nc2ccc(Oc3ccc(NC(=O)Nc4cccc(Cl)c4)cc3)cc2[nH]1
16.8

So what's the measured inhibition for this one? COc1ccc(-c2cc(-c3c[nH]nc3-c3ccccn3)ccn2)cc1
6.26

So what's the measured inhibition for this one? Nc1nc(-c2cccc(Cl)c2)c(-c2ccc3ncccc3n2)s1
13.8

So what's the measured inhibition for this one? Fc1cccc(COc2ccc(Nc3ncnc4sc(-c5ccco5)cc34)cc2Cl)c1
43.4

So what's the measured inhibition for this one? CCCN(CCS(C)(=O)=O)Cc1ccc(-c2ccc3ncnc(Nc4ccc(OCc5cccc(F)c5)c(Cl)c4)c3c2)o1
0.79

So what's the measured inhibition for this one? CN(C)CCOc1ccc(-c2nc(-c3ccncc3)c(-c3ccc4c(c3)CC/C4=N\O)[nH]2)cc1
0.18
